Source: patent US20250296938A1

- measured.on: KRas G12D mutant (Homo sapiens, UniProt P01116, G12D)
- Construct: fused on or other part: His tag, used for capture on nickel-coated plates
- experiment: Ras GTP binding domain inhibition assay (Cy3-GTP/Cy5-GTP competition)
- conditions.used: 20 μM; without SOS; read-out: KRas G12D mutant: % inh.
# inhibition at 20 µM values compiled below

Given the compound Cc1cn(C)c(-c2nc(O)c3scc(-c4ccccn4)c3n2)n1 [drawing 807] , write its reported inhibition at 20 µM. 76 to 100%

Given the compound COc1ncccc1-c1sc2nc(-c3nccn3C)nc(N3CCC(OC)C3)c2c1-c1ccccc1.Cl (centres unmarked) , write its reported inhibition at 20 µM. 51 to 75%

***
Given the compound COC1CCN(c2nc(-c3nccn3C)nc3sc(-c4cccnc4)c(-c4ccccc4)c23)C1.Cl (centres unmarked) , write its reported inhibition at 20 µM. 51 to 75%

Given the compound Cn1ccnc1-c1nc(O)c2scc(-c3ccccn3)c2n1 [drawing 853] , write its reported inhibition at 20 µM. 76 to 100%

Given the compound COCCNc1nc(-c2nccn2C)nc2sc(-c3cccc(OC)c3Cl)c(-c3ccccc3)c12 [drawing 872] , write its reported inhibition at 20 µM. 1 to 25%

###

- measured.on: KRas G12D mutant (Homo sapiens, UniProt P01116, G12D)
- Construct: fused on or other part: His tag, used for capture on nickel-coated plates
- experiment: Ras GTP binding domain inhibition assay (Cy3-GTP/Cy5-GTP competition)
- conditions.used: 20 μM; with SOS (Table 7A); read-out: KRas G12D mutant + SOS: % inh.
measured.parameter: inhibition at 20 µM

Given the molecule Cc1c(-c2ccn(C)n2)sc2nc(-c3nccn3C)nc(NCCCS(C)(=O)=O)c12 [drawing 916] , write its reported inhibition at 20 µM. 76 to 100%

Given the molecule CO[C@H]1C[C@@H](Nc2nc(-c3nccn3C)nc3sccc23)C1 [drawing 903] , write its reported inhibition at 20 µM. 76 to 100%

Given the molecule COc1nc(-c2ccccn2)nc2c(-c3ccccn3)csc12 [drawing 913] , write its reported inhibition at 20 µM. 1 to 25%

Given the molecule COc1cccc(-c2sc3nc(-c4nccn4C)nc(N[C@@H]4CC[C@H](OC)C4)c3c2-c2ccccc2)c1F [drawing 884] , write its reported inhibition at 20 µM. 51 to 75%

Given the molecule CCn1cc(Nc2nc(-c3ccccn3)nc(O)c2OC)cn1 [drawing 881] , write its reported inhibition at 20 µM. 26 to 50%

***
Given the molecule CO[C@H]1C[C@H](Nc2nc(-c3nccn3C)nc3sc(-c4ccn(C)n4)c(-c4ccccc4)c23)C1 [drawing 906] , write its reported inhibition at 20 µM. 51 to 75%

Given the molecule COc1cccc(-c2sc3nc(-c4nccn4C)nc(NC4CCC(OC)C4)c3c2-c2ccccc2)c1F (centres unmarked) [drawing 883] , write its reported inhibition at 20 µM. 51 to 75%

Given the molecule CO[C@H]1CC[C@@H](Nc2nc(-c3nccn3C)nc3sc(-c4ccn(C(C)C)n4)c(-c4ccccc4)c23)C1 [drawing 912] , write its reported inhibition at 20 µM. 51 to 75%

###

# inhibition at 20 µM values compiled below
- measured.on: KRas G12D mutant (Homo sapiens, UniProt P01116, G12D)
- Construct: fused on or other part: His tag, used for capture on nickel-coated plates
- experiment: Ras GTP binding domain inhibition assay (Cy3-GTP/Cy5-GTP competition)
- conditions.used: 20 μM; without SOS (Table 7A); read-out: KRas G12D mutant: % inh.

Given the compound CO[C@H]1CC[C@@H](Nc2nc(-c3nccn3C)nc3sc(-c4ccn(C(C)C)n4)c(C)c23)C1 [drawing 919] , write its reported inhibition at 20 µM. 51 to 75%

Given the compound COc1c(F)cccc1-c1sc2nc(-c3nccn3C)nc(NC3CCC(OC)C3)c2c1-c1ccccc1 (stereo not shown) [drawing 886] , write its reported inhibition at 20 µM. 1 to 25%

Given the compound CO[C@H]1CC[C@@H](Nc2nc(-c3nccn3C)nc3sc(-c4ccn(C)n4)c(C)c23)C1 [drawing 915] , write its reported inhibition at 20 µM. 26 to 50%

Given the compound COc1cccc(Cn2ccnc2-c2nc(O)c3scc(-c4ccc(OCC(C)C)nc4)c3n2)c1 [drawing 900] , write its reported inhibition at 20 µM. 51 to 75%

Given the compound COc1cccc(-c2sc3nc(-c4nccn4C)nc(N[C@H]4C[C@@H](OC)C4)c3c2-c2ccccc2)c1F [drawing 891] , write its reported inhibition at 20 µM. 26 to 50%

Given the compound CCn1cc(Nc2nc(-c3ccccn3)nc(O)c2OC)cn1 [drawing 881] , write its reported inhibition at 20 µM. 26 to 50%

Given the compound COc1cccc(-c2sc3nc(-c4nccn4C)nc(NC4CCC(OC)C4)c3c2-c2ccccc2)c1F (stereo not shown) [drawing 883] , write its reported inhibition at 20 µM. 26 to 50%

Given the compound Cn1ccc(-c2sc3nc(-c4nccn4C)nc(N[C@H]4C[C@@H](O)C4)c3c2-c2ccccc2)n1 [drawing 908] , write its reported inhibition at 20 µM. 0%

***
Given the compound COCCNC(=O)c1sc2nc(-c3nccn3C)nc(N[C@@H]3CC[C@H](OC)C3)c2c1-c1ccccc1 [drawing 925] , write its reported inhibition at 20 µM. 76 to 100%

Given the compound `CO[C@H]1C[C@@H](Nc2nc(-c3nccn3C)nc3sc(-c4ccn(C)n4)c(-c4ccccc4)c23)C1.Cl` , write its reported inhibition at 20 µM. 26 to 50%

Given the compound COc1cccc(-c2sc3nc(-c4nccn4C)nc(N[C@@H]4CC[C@H](OC)C4)c3c2-c2ccccc2)c1F [drawing 884] , write its reported inhibition at 20 µM. 51 to 75%

Given the compound Cc1c(-c2ccn(C)n2)sc2nc(-c3nccn3C)nc(NCCCC(=O)N(C)C)c12 [drawing 917] , write its reported inhibition at 20 µM. 51 to 75%

Given the compound Cc1c(-c2ccn(C)n2)sc2nc(-c3nccn3C)nc(NCCOC(=O)N(C)C)c12 [drawing 918] , write its reported inhibition at 20 µM. 76 to 100%

Given the compound COC1CCN(c2nc(-c3nccn3C)nc3sc(-c4cccc(O)c4F)c(-c4ccccc4)c23)C1 (stereo not shown) [drawing 890] , write its reported inhibition at 20 µM. 1 to 25%

Given the compound COC1CCC(Nc2nc(-c3nccn3C)nc3sc(-c4cccc5[nH]ncc45)c(C)c23)C1 (stereo not shown) [drawing 895] , write its reported inhibition at 20 µM. 26 to 50%

Given the compound CO[C@H]1CC[C@@H](Nc2nc(-c3nccn3C)nc3sc(C(=O)N4CCOCC4)c(-c4ccccc4)c23)C1 [drawing 927] , write its reported inhibition at 20 µM. 76 to 100%
